target: Tyrosine-protein kinase Lyn (Homo sapiens) (UniProt P07948)
Sequence (P07948 2-512 limits assumed): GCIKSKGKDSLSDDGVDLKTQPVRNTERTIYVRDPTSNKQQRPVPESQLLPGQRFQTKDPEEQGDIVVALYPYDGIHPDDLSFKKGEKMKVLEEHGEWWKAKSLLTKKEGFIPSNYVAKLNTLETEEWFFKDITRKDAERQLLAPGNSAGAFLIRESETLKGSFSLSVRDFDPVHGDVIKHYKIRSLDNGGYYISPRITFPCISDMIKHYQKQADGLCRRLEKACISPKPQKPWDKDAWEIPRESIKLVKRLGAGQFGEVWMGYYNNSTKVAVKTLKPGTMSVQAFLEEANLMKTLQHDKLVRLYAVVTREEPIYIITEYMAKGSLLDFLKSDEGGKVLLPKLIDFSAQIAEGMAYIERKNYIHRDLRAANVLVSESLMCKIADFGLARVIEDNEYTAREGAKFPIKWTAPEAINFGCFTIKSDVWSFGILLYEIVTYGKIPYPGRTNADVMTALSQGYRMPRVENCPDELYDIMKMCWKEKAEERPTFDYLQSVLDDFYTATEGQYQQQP
study-conditions: at 1 µM
Description: GSK_PKIS: LYN B (splice variant) mean inhibition at 1 uM [Nanosyn]
If the reported inhibition equals or exceeds 8%, assign fulfilled. If not, assign not fulfilled.

Below are worked cases with known answers.
chemical-string: CS(=O)(=O)CCNCc1nc(-c2ccc3ncnc(Nc4ccc(OCc5cccc(C(F)(F)F)c5)cc4)c3c2)cs1
target: Tyrosine-protein kinase Lyn (Homo sapiens) (UniProt P07948)
category-label: not fulfilled

chemical-string: Cc1ccc(O)cc1Nc1ccnc2ccc(S(C)(=O)=O)cc12
target: Tyrosine-protein kinase Lyn (Homo sapiens) (UniProt P07948)
category-label: fulfilled

Reported inhibition at or above 8%? "[O-][S+]1CCN(Cc2ccc(-c3ccc4ncnc(Nc5ccc(OCc6ccccc6)c(Cl)c5)c4c3)o2)CC1" not fulfilled

What do you have for "Cc1cc(Cl)cc2c1NC(=O)C2=NNc1ccc(S(N)(=O)=O)cc1" ? not fulfilled

What do you have for "c1ccc(Cc2nc3ccc(Nc4ncnc5ccccc45)cc3[nH]2)cc1" ? fulfilled

What do you have for "Cc1cc(-c2ccccn2)cc(C)c1/C=C/c1cncc(-c2nn[nH]n2)c1" ? fulfilled

What do you have for "CN1CCN(C(=O)c2ccc(NC(=O)Nc3ccc(N(C)c4ccnc(Nc5ccc(CS(C)(=O)=O)cc5)n4)cc3)cc2)CC1" ? fulfilled

What do you have for "CN(C)c1cc2c(Nc3ccc4c(cnn4Cc4ccccc4)c3)ncnc2cn1" ? fulfilled

###

target: Mitogen-activated protein kinase 3 (Homo sapiens)
study-conditions: at 0.1 µM
If the reported inhibition equals or exceeds 3%, assign YES. If not, assign NO.

Below are worked cases with known answers.
chemical-string: ON=C1CCc2cc(-c3nc(C4CCNCC4)[nH]c3-c3ccncc3)ccc21
target: Mitogen-activated protein kinase 3 (Homo sapiens)
category-label: NO
//
chemical-string: NC(=O)c1sc(-n2cnc3ccccc32)cc1OCc1ccccc1Br
target: Mitogen-activated protein kinase 3 (Homo sapiens)
category-label: NO
//
chemical-string: Cc1ccc2c(-c3ccnc(Nc4ccc5c(c4)OCCO5)n3)c(-c3ccc(C(F)(F)F)cc3)nn2n1
target: Mitogen-activated protein kinase 3 (Homo sapiens);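 also: each value is a mean inhibition figure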
category-label: NO

Reported inhibition at or above 3%? "Cc1ccc(O)cc1Nc1ccnc2ccc(S(C)(=O)=O)cc12" YES

What do you have for "COC(=O)c1ccc2c(c1)C(=Cc1cc(Br)c(O)c(Br)c1)C(=O)N2" ? YES

What do you have for "CCOc1nccc2c1nc(-c1nonc1N)n2CC" ? YES

###

Field: inhibition. Provide a value for each of the molecules that follow.
target: Tyrosine-protein kinase CSK (Homo sapiens) (UniProt P41240)
Sequence (P41240 2-450 limits assumed): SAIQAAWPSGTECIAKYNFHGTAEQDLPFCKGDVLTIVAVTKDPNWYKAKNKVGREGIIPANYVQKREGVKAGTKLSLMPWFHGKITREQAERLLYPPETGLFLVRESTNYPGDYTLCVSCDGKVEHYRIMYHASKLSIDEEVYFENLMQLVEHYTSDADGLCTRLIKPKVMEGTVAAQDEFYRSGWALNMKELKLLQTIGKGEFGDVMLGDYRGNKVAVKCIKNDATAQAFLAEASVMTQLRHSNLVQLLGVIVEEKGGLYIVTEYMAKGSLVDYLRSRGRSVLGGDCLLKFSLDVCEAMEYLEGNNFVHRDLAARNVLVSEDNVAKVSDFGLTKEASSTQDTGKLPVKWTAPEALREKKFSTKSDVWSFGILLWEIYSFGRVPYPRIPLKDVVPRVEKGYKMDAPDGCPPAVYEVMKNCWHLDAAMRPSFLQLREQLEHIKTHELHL
study-conditions: at 0.1 µM
Numbers only, in %.

chemical-string: CN1CCN(C(=O)c2ccc(NC(=O)Nc3ccc(N(C)c4ccnc(Nc5ccc(CS(C)(=O)=O)cc5)n4)cc3)cc2)CC1
target: Tyrosine-protein kinase CSK (Homo sapiens) (UniProt P41240)
unit-abbrev: %
inhibition: -1.19
//
chemical-string: COc1cc2ncn(-c3cc(OCc4ccccc4S(C)(=O)=O)c(C#N)s3)c2cc1OC
target: Tyrosine-protein kinase CSK (Homo sapiens) (UniProt P41240)
unit-abbrev: %
inhibition: 7.28
//
chemical-string: Nc1ccc(C#Cc2cncnc2Nc2ccc(OCc3cccc(F)c3)c(Cl)c2)cc1
target: Tyrosine-protein kinase CSK (Homo sapiens) (UniProt P41240)
unit-abbrev: %
inhibition: -1.23
//
chemical-string: NC(=O)c1cccc(Nc2nccc(Nc3cccc(F)c3)n2)c1
target: Tyrosine-protein kinase CSK (Homo sapiens) (UniProt P41240)
unit-abbrev: %
inhibition: 0.49
//
chemical-string: CN(C)C(=O)O[C@@H]1CN[C@@H](C#Cc2cc3ncnc(Nc4ccc(OCc5cccc(F)c5)c(Cl)c4)c3s2)C1
target: Tyrosine-protein kinase CSK (Homo sapiens) (UniProt P41240);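 also: value given is the averaged percent inhibition of CSK kinase activity, from the GSK PKIS kinase inhibitor set screening panel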
unit-abbrev: %
inhibition: -1.53

// input: 3 molecules below; output: inhibition for each
1. OCc1ccc(-c2nc(-c3ccccn3)c(-c3ccc4c(c3)OCO4)[nH]2)cc1
2. Cc1cc(Cl)cc2c1NC(=O)C2=NNc1ccc(S(N)(=O)=O)cc1
3. CN(c1ccc(NC(=O)Nc2ccc(OC(F)(F)F)cc2)cc1)c1ccnc(Nc2cccc(S(N)(=O)=O)c2)n1

1: 3.92; 2: -0.78; 3: 3.6

// input: 8 molecules below; output: inhibition for each
1. N#Cc1c(NC(=O)c2ccccc2F)sc2c1CCCC2
2. COc1cc(Nc2nccc(-c3cnn4ncccc34)n2)cc(OC)c1
3. COc1cccc(-n2ncc3c(N/N=C/c4ccc(S(C)(=O)=O)cc4)ncnc32)c1
4. CN(C)c1cc2c(Nc3ccc4c(cnn4Cc4ccccc4)c3)ncnc2cn1
5. FC(F)(F)c1ccc(-c2nn3ncccc3c2-c2ccnc(Nc3ccc4c(c3)OCCO4)n2)cc1
6. c1ccc(Nc2ncc(-c3ccccc3)o2)cc1
7. c1ccc(Cc2nc3ccc(Nc4ncnc5ccccc45)cc3[nH]2)cc1
8. COc1cc2ncnc(Nc3ccc4c(cnn4Cc4ccccc4)c3)c2cc1OC

1: -1.65; 2: 2.91; 3: 5.8; 4: 6.06; 5: -0.13; 6: 4.22; 7: 8.17; 8: 11.1

// input: 8 molecules below; output: inhibition for each
1. CN(C)C(=O)O[C@H]1CN[C@H](C#Cc2cc3ncnc(Nc4ccc(OCc5cccc(F)c5)c(Cl)c4)c3s2)C1
2. NS(=O)(=O)c1ccc(NC=C2C(=O)Nc3ccc4ncsc4c32)cc1
3. NS(=O)(=O)c1ccc(N/N=C2\C(=O)Nc3ccc(Cl)cc32)cc1
4. COC(=O)c1ccc2c(c1)C(=Cc1cc(Br)c(O)c(Br)c1)C(=O)N2
5. COc1ccc(-c2nn3ncccc3c2-c2ccnc(Nc3cccc(C(F)(F)F)c3)n2)cc1
6. O=C1Nc2ccc(-c3cccnc3)cc2C1=Cc1cc(Br)c(O)c(Br)c1
7. C[C@@H](Oc1cc(-n2cnc3ccc(OC[C@@H](O)CO)cc32)sc1C(N)=O)c1ccccc1Cl
8. CCS(=O)(=O)c1ccc(OC)c(Nc2ncc(-c3cccc(OC)c3)o2)c1

0.6
2.77
4.9
-0.27
2.1
4.14
-0.73
-0.51

###

target: Tyrosine-protein kinase HCK (Homo sapiens) (UniProt P08631);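 also: values are mean inhibition of HCK, taken from the GSK_PKIS kinase profiling screen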
Sequence (P08631 2-526 limits assumed): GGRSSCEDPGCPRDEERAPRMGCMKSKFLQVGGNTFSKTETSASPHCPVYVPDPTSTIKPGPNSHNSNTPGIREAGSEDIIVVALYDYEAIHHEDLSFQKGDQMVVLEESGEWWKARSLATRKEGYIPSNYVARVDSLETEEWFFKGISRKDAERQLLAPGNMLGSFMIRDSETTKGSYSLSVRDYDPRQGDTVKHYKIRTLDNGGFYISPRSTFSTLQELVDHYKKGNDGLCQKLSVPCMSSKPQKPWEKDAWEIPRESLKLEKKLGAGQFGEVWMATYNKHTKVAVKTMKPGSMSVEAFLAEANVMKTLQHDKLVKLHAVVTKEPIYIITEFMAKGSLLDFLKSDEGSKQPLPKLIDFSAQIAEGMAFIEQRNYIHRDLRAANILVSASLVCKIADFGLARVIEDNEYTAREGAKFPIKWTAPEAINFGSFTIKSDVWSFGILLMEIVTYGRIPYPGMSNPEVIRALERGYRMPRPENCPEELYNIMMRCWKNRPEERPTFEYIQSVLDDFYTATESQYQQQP
study-conditions: at 0.1 µM
endpoint: inhibition (%)
One number for each entry, in %.

chemical-string: Nc1nccc(-c2c(-c3ccc(F)cc3)ncn2CCCN2CCOCC2)n1
assay-value: 5.16
//
chemical-string: CC(C)c1ccc2c(c1)NC(=O)/C2=N/Nc1ccc(S(N)(=O)=O)cc1
assay-value: 0.57
//
chemical-string: N#Cc1cccc(Nc2nccc(-c3cnn4ncccc34)n2)c1
assay-value: 7.16
//
chemical-string: CC(C)c1ccc(Nc2nccc(-c3cnn4ncccc34)n2)cc1
assay-value: 4
//
chemical-string: Cc1ccc(Nc2ccnc(Nc3cccc(C(N)=O)c3)n2)cc1O
assay-value: 58.8

// input: 5 compounds below; output: inhibition for each
1. CN(c1ccc(NC(=O)Nc2ccc(OC(F)(F)F)cc2)cc1)c1ccnc(Nc2cccc(S(N)(=O)=O)c2)n1
2. N#Cc1c(NC(=O)c2ccccc2F)sc2c1CCCC2
3. NS(=O)(=O)c1cccc(Nc2cc(-c3ccc(F)cc3)n[nH]2)c1
4. Cc1nc(-c2ccccc2)n2nc(NCCCN3CCOCC3)ncc12
5. C[C@@H](Oc1cc(-n2cnc3ccc(OCC4CCN(C)CC4)cc32)sc1C(N)=O)c1ccccc1C(F)(F)F

[25.2, -1.54, 3.23, 3.98, 3.31]

###

target: Tyrosine-protein kinase Lyn (Homo sapiens) (UniProt P07948)
study-conditions: at 1 µM
Description: GSK_PKIS: LYN A (splice variant) mean inhibition at 1 uM [Nanosyn]
Field: inhibition. Provide a value for each of the molecules that follow.
Write your answer as a measured quantity: the number, then the unit.

These solved cases illustrate the format of a correct answer.
chemical-string: CN(C)C(=O)O[C@@H]1CN[C@@H](C#Cc2cc3ncnc(Nc4ccc(OCc5cccc(F)c5)c(Cl)c4)c3s2)C1
assay-value: 2.73%

chemical-string: CS(=O)(=O)CCNCc1nc(-c2ccc3ncnc(Nc4ccc(OCc5cccc(C(F)(F)F)c5)cc4)c3c2)cs1
assay-value: 2.07%

chemical-string: c1ccc(Nc2ncc(-c3ccccc3)o2)cc1
assay-value: 9.62%

// input: 5 molecules below; output: inhibition for each
1. CCS(=O)(=O)c1ccc(OC)c(Nc2ncc(-c3cccc(OC)c3)o2)c1
2. Nc1nccc(-c2c(-c3ccc(F)cc3)ncn2CCCN2CCOCC2)n1
3. O=C1Nc2ccccc2/C1=C/Nc1ccc2[nH]c(=O)[nH]c2c1
4. Cc1ccc2c(-c3ccnc(Nc4cccc(C(F)(F)F)c4)n3)c(-c3ccccc3)nn2n1
5. CC(C)c1ccc2c(c1)NC(=O)/C2=N/Nc1ccc(S(N)(=O)=O)cc1

1. 68.2%
2. 9.61%
3. 30.1%
4. 53%
5. 12.2%

Given the entry "CN(C)C(=O)O[C@H]1CN[C@H](C#Cc2cc3ncnc(Nc4ccc(OCc5cccc(F)c5)c(Cl)c4)c3s2)C1" , report its measured inhibition. 4.57%

###

target: Calcium/calmodulin-dependent protein kinase type 1D (Homo sapiens) (UniProt Q8IU85);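 also: reported figure is the mean inhibition of CAMK1D, from the GSK PKIS screening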
Sequence (Q8IU85 whole entry, looked up): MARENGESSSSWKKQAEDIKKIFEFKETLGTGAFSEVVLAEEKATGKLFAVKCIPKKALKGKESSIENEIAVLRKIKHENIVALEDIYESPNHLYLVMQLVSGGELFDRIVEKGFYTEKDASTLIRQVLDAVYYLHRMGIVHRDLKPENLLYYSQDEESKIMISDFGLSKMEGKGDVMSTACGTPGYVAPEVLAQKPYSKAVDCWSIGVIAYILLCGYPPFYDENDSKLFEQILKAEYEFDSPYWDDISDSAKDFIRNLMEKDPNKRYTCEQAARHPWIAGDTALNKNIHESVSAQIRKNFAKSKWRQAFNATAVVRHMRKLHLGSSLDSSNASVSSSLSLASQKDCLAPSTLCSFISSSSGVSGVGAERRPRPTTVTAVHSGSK
study-conditions: at 0.1 µM
Field: inhibition. Provide a value for each of the molecules that follow.

These solved cases illustrate the format of a correct answer.
molecule: CN1CCN(C(=O)c2ccc(NC(=O)Nc3ccc(N(C)c4ccnc(Nc5ccc(CS(C)(=O)=O)cc5)n4)cc3)cc2)CC1
inhibition: 0.6%
--
molecule: Cc1ccc2c(-c3ccnc(Nc4cccc(C(F)(F)F)c4)n3)c(-c3ccccc3)nn2n1
inhibition: 0.64%
--
molecule: CN(C)C(=O)O[C@H]1CN[C@H](C#Cc2cc3ncnc(Nc4ccc(OCc5cccc(F)c5)c(Cl)c4)c3s2)C1
inhibition: 0.05%

// input: 5 molecules below; output: inhibition for each
1. COc1cc(Nc2nccc(-c3cnn4ncccc34)n2)cc(OC)c1
2. CCCN1CCCC(c2ccc(Nc3nc(Nc4cc(F)ccc4C(N)=O)c4cc[nH]c4n3)c(OC)c2)C1 (stereo not drawn)
3. Cc1ccc(O)cc1Nc1ccnc2ccc(S(C)(=O)=O)cc12
4. Cc1ccc(C(=O)NC2CC2)cc1-c1ccc2[nH]ncc2c1
5. Cc1cc(Cl)cc2c1NC(=O)C2=NNc1ccc(S(N)(=O)=O)cc1

1. 0.86%
2. 15.8%
3. -0.51%
4. -0.69%
5. 0.2%
